molecular target: ΔF508-CFTR (Homo sapiens, UniProt P13569, DEL508-508); construct: host or cells: CFBE41o-, doxycycline-inducible; assay: CFTR cell surface levels using HRP-tagged ΔF508-CFTR expressing CFBE cells, intrinsic corrector capacity; format: cell-based; conditions: HRP-tagged ΔF508-CFTR CFBE41o- cells, compounds alone (intrinsic corrector capacity), 20 hours at 33° C.; positive control 3 μM corrector
Sequence (P13569 with tags, fused parts or gaps DEL508-508): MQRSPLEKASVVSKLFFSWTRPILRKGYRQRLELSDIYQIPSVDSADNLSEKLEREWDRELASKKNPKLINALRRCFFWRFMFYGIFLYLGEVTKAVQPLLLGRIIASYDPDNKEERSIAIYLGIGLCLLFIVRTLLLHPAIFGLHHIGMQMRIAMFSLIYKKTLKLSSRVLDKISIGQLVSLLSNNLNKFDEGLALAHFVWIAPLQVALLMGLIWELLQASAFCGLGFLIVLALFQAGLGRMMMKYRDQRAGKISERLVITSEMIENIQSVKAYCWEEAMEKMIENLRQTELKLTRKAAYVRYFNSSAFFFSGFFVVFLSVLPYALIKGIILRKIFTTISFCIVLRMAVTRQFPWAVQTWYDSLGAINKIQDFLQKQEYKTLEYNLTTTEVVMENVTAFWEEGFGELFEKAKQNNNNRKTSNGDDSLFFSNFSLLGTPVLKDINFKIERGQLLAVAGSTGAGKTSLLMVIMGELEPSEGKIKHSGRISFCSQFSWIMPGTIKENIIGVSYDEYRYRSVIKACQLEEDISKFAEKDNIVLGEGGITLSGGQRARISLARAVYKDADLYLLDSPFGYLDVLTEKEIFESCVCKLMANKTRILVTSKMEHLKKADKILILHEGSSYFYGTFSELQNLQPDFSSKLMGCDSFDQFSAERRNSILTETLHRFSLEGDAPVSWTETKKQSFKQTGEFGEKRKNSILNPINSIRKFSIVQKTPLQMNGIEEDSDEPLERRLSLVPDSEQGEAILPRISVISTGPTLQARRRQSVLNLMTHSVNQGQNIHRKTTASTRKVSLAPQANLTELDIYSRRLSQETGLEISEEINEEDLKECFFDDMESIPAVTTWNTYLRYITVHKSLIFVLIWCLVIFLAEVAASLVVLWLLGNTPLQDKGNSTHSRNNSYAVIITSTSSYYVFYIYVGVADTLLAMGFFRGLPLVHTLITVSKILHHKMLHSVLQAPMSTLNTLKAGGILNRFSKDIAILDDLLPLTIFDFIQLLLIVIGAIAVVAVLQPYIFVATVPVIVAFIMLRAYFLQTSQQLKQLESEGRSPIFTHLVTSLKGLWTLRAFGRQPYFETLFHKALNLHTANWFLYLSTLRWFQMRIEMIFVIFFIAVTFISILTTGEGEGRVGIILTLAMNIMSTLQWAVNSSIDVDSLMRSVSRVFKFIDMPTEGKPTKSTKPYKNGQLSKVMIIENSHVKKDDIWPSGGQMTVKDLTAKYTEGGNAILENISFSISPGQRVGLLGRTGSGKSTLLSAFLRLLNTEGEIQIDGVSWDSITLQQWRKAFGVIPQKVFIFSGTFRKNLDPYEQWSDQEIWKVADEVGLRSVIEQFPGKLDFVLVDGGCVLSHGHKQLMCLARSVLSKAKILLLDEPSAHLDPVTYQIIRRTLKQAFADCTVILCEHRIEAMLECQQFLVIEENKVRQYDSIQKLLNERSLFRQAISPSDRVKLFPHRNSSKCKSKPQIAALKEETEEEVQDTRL
endpoint: % Activation (%)
Field format: number, assumed %, no unit text.

Record excerpt, results attached:
Measured % Activation, Cc1cccc(-n2nc(C(C)C)c3c(N4CCC5(C4)CC5(F)F)cc(C(=O)O)nc32)c1 (stereo not drawn) : 144.2

Measured % Activation, `CC(=O)N1CC(c2nn(-c3ccccc3)c3nc(C(=O)O)cc(-c4ccc(N5CCOCC5)cc4)c23)C1` : 10.784

Measured % Activation, `O=C(O)c1cc(-c2ccc(N3CCOCC3)cc2)c2c(C3CCC3)nn(-c3cccc(F)c3)c2n1` : 208.2

Measured % Activation, `Cc1nn(-c2ccccc2)c2nc(C(=O)O)cc(-c3ccc(N4CCN(C(C)(C)C)CC4)cc3)c12` : 14.9

Measured % Activation, CC(C)(C)OC(=O)N1CCCC1c1nn(-c2ccccc2)c2nc(C(=O)O)cc(-c3ccc(N4CCOCC4)cc3)c12 (stereo not drawn) : 117.9

New cases:
Measured % Activation, `CC(C)c1nn(-c2cccc(N3CCC3)c2)c2nc(C(=O)O)cc(-c3ccc(N4CCOCC4)cc3)c12` : 322.03

Measured % Activation, `N#CC1CCN(c2ccc(-c3cc(C(=O)O)nc4c3c(C3CCC3)nn4C3CCCCC3)cc2)CC1` : 248.7

Measured % Activation, `Cc1nn(-c2cccc(N(C)C)c2)c2nc(C(=O)O)cc(-c3cnc(N4CCOCC4)nc3)c12` : 169.65

Measured % Activation, CC(C)c1nn(C2CCCOC2)c2nc(C(=O)O)cc(-c3ccc(N4CCC(C#N)CC4)nc3)c12 (stereo not drawn) : 147.55

Measured % Activation, `CC(C)c1nn(-c2cncc(N3CCOCC3)c2)c2nc(C(=O)O)cc(-c3ccc(N4CCOCC4)cc3)c12` : 94.07

Measured % Activation, `Cc1nn(-c2ccccc2)c2nc(C(=O)O)cc(-c3ccc(N4CCN(CCC(F)(F)F)CC4)cc3)c12` : 135.95

Measured % Activation, `Cc1nn(-c2ccccc2)c2nc(C(=O)O)cc(-c3ccc(NC4CCC4)cc3)c12` : 141.5

* * *

Target: ΔF508-CFTR (Homo sapiens, UniProt P13569, DEL508-508)
Construct: host or cells: CFBE41o-, doxycycline-inducible
Experiment: CFTR cell surface levels using HRP-tagged ΔF508-CFTR expressing CFBE cells, in the presence of a co-corrector
Type: cell-based
Conditions: HRP-tagged ΔF508-CFTR expressing CFBE cells, in the presence of 3 μM co-corrector
Excerpt: Measuring CFTR Cell Surface Levels Using HRP-Tagged AF508-CFTR Expressing CFBE Cells The HRP-tagged AF508-CFTR cell assay measures the expression of CFTR-ΔF508 at the plasma membrane. […] When HRP-tagged AF508-CFTR is present at the plasma membrane, the HRP enzyme activity can be measured. The amount of CFTR-ΔF508 that can be rescued to the plasma membrane is correlated with the amount of functional enzyme that can be measured. […]
endpoint: % Activation

Record excerpt, results attached:
Measured % Activation, CC(=O)N1CC2CN(c3cc(C(=O)O)nc4c3c(C(C)C)nn4-c3cccc(C)c3)CC2C1 (centres unmarked) [compound 233] : 249.55%

Measured % Activation, COCCN(C)c1cc(C(=O)O)nc2c1c(C(C)C)nn2-c1cccc(C)c1 [compound 209] : 411.9%

Measured % Activation, O=C(O)c1cc(N2CCC(CN3CCC4(COC4)C3)CC2)c2c(C3CCC3)nn(-c3ccccc3)c2n1 [compound 842] : 370%

Measured % Activation, COCC1CCN(c2cc(C(=O)O)nc3c2c(C(C)C)nn3-c2ccnc(N3CCOCC3)c2)CC1 [compound 525] : 311.3%

Measured % Activation, N#CC1CN(C2CCN(c3cc(C(=O)O)nc4c3c(C3CCC3)nn4-c3ccc(F)cc3)CC2)CCO1 (centres unmarked) [compound 851] : 559.8%

Measured % Activation, COCC1(F)CCCN(c2cc(C(=O)O)nc3c2c(C2CCC2)nn3-c2ccccc2)C1 (centres unmarked) [compound 595] : 383.8%

Measured % Activation, CC(C)c1nn(-c2ccnc(N3CCOCC3)c2)c2nc(C(=O)O)cc(-c3ccc(N4CCOCC4)cc3)c12 [compound 201] : 439.85%

New cases:
Measured % Activation, CC1(O)CN(c2cc(C(=O)O)nc3c2c(C2CCC2)nn3-c2ccccc2)C1 [compound 536] : 209.35%

* * *

Below: a set of entries, each annotated with reported pEC50.
target: ΔF508-CFTR (Homo sapiens, UniProt P13569, DEL508-508); construct: host or cells: CFBE41o-, doxycycline-inducible; assay: CFTR cell surface levels using HRP-tagged ΔF508-CFTR expressing CFBE cells, intrinsic corrector capacity; type: cell-based; conditions: HRP-tagged ΔF508-CFTR expressing CFBE cells; intrinsic corrector capacity (no co-corrector); 33° C., 20 hours; read-out: EC50
# pEC50: negative log10 of molar concentration; output just the value

Record excerpt, results attached:
Measured pEC50, `COCC1CCN(c2cc(C(=O)O)nc3c2c(C(C)C)nn3-c2cc(C)nc(C)c2)CC1` : 5.80

Measured pEC50, `O=C(O)c1cc(N2CCC3(CCCC3)CC2)c2c(C3CCC3)nn(-c3ccccc3)c2n1` : 5.95

Measured pEC50, `CCC1(COc2cc(C(=O)O)nc3c2c(C2CCC2)nn3-c2ccccc2)COC1` : 6.60

Measured pEC50, `O=C(O)c1cc(OC2CN(C3CCCCC3)C2)c2c(C3CCC3)nn(-c3ccccc3)c2n1` : 6.45

Measured pEC50, `CNC[C@@H]1CCN(c2cc(C(=O)O)nc3c2c(C2CCC2)nn3-c2ccccc2)C1` : 5.30

New cases:
Measured pEC50, O=C(O)c1cc(N2CCC3C(CCN3C3COC3)C2)c2c(C3CCC3)nn(-c3ccc(F)cc3)c2n1 (stereo not shown) : 6.64

Measured pEC50, COCC1(F)CCN(c2cc(C(=O)O)nc3c2c(C2CCC2)nn3-c2ccccc2)C1 (stereo not shown) : 5.95

Measured pEC50, `CN(C)C[C@@H](F)C1CCN(c2cc(C(=O)O)nc3c2c(C2CCC2)nn3-c2ccccc2)CC1` : 6.07

Measured pEC50, `COCC1(F)CCN(c2cc(C(=O)O)nc3c2c(C2CCC2)nn3-c2ccccc2)CC1` : 6.16

Measured pEC50, `CC1(C)CC(c2nn(-c3ccccc3)c3nc(C(=O)O)cc(-c4ccc(N5CCC(C#N)CC5)nc4)c23)C1` : 6.43

* * *

biological target: ΔF508-CFTR (Homo sapiens, UniProt P13569, DEL508-508); construct: host or cells: CFBE41o-, doxycycline-inducible; assay: CFTR cell surface levels using HRP-tagged ΔF508-CFTR expressing CFBE cells, in the presence of a co-corrector; type: cell-based; details: HRP-tagged ΔF508-CFTR expressing CFBE cells, in the presence of 3 μM co-corrector
% Activation below 400% gives NO; % Activation at or above it gives YES.

Reference set (6 entries):
IN: Hello, I need to know if CC(C)c1nn(-c2ccc(F)cc2)c2nc(C(=O)O)cc(N3CCC(OCCN4CCCCC4)CC3)c12 [compound 762] has measured % Activation not below 400%. Thanks!
OUT: YES

IN: Hello, I need to know if CC(C)c1nn(C2CCCCC2)c2nc(C(=O)O)cc(-c3cnn(C(C)C)c3)c12 [compound 361] has measured % Activation not below 400%. Thanks!
OUT: NO

IN: Hello, I need to know if O=C(O)c1cc(N2CCC(N3CCOCC3)CC2)c2c(C3CCC3)nn(-c3ccc(F)cc3)c2n1 [compound 679] has measured % Activation not below 400%. Thanks!
OUT: YES

IN: Hello, I need to know if CC(C)c1nn(-c2cccc(N3CCOCC3)c2)c2nc(C(=O)O)cc(-c3ccc(N(C)C)nc3)c12 [compound 89] has measured % Activation not below 400%. Thanks!
OUT: YES

IN: Hello, I need to know if CC(C)c1nn(-c2cccc(N3CCC(F)C3)c2)c2nc(C(=O)O)cc(-c3ccc(N4CCOCC4)cc3)c12 (stereo not drawn) [compound 165] has measured % Activation not below 400%. Thanks!
OUT: YES

IN: Hello, I need to know if Cc1cccc(-n2nc(C(C)C)c3c(N4CCC5(CCCCC5)CC4)cc(C(=O)O)nc32)c1 [compound 360] has measured % Activation not below 400%. Thanks!
OUT: NO

New cases:
IN: Hello, I need to know if COCC1CCN(c2cc(C(=O)O)nc3c2c(C(C)C)nn3CC(C)C)CC1 [compound 548] has measured % Activation not below 400%. Thanks!
OUT: NO

IN: Hello, I need to know if CCCN1CCCN(c2cc(C(=O)O)nc3c2c(C(C)C)nn3-c2ccc(F)cc2)CC1 [compound 766] has measured % Activation not below 400%. Thanks!
OUT: NO

IN: Hello, I need to know if O=C(O)c1cc(OCCN(C2CCCCC2)C2COC2)c2c(C3CCC3)nn(-c3ccccc3)c2n1 [compound 625] has measured % Activation not below 400%. Thanks!
OUT: NO

IN: Hello, I need to know if Cc1nn(-c2cccc(C(F)(F)F)c2)c2nc(C(=O)O)cc(-c3ccc(N4CCOCC4)nc3)c12 [compound 102] has measured % Activation not below 400%. Thanks!
OUT: NO

IN: Hello, I need to know if CS(=O)(=O)[C@@H]1CCN(c2cc(C(=O)O)nc3c2c(C2CCC2)nn3-c2ccccc2)C1 [compound 467] has measured % Activation not below 400%. Thanks!
OUT: NO

IN: Hello, I need to know if CCC1(COc2cc(C(=O)O)nc3c2c(C2CCC2)nn3-c2ccccc2)COCOC1 [compound 620] has measured % Activation not below 400%. Thanks!
OUT: NO

IN: Hello, I need to know if Cc1nn(-c2cccc(N(C)C)c2)c2nc(C(=O)O)cc(-c3cnc(N4CCOCC4)nc3)c12 [compound 90] has measured % Activation not below 400%. Thanks!
OUT: NO
